pEC50 values by entry
# MEASUREMENT_TARGET: CFTR-mediated chloride transport (Homo sapiens)
# Sequence (P13569 whole entry, looked up): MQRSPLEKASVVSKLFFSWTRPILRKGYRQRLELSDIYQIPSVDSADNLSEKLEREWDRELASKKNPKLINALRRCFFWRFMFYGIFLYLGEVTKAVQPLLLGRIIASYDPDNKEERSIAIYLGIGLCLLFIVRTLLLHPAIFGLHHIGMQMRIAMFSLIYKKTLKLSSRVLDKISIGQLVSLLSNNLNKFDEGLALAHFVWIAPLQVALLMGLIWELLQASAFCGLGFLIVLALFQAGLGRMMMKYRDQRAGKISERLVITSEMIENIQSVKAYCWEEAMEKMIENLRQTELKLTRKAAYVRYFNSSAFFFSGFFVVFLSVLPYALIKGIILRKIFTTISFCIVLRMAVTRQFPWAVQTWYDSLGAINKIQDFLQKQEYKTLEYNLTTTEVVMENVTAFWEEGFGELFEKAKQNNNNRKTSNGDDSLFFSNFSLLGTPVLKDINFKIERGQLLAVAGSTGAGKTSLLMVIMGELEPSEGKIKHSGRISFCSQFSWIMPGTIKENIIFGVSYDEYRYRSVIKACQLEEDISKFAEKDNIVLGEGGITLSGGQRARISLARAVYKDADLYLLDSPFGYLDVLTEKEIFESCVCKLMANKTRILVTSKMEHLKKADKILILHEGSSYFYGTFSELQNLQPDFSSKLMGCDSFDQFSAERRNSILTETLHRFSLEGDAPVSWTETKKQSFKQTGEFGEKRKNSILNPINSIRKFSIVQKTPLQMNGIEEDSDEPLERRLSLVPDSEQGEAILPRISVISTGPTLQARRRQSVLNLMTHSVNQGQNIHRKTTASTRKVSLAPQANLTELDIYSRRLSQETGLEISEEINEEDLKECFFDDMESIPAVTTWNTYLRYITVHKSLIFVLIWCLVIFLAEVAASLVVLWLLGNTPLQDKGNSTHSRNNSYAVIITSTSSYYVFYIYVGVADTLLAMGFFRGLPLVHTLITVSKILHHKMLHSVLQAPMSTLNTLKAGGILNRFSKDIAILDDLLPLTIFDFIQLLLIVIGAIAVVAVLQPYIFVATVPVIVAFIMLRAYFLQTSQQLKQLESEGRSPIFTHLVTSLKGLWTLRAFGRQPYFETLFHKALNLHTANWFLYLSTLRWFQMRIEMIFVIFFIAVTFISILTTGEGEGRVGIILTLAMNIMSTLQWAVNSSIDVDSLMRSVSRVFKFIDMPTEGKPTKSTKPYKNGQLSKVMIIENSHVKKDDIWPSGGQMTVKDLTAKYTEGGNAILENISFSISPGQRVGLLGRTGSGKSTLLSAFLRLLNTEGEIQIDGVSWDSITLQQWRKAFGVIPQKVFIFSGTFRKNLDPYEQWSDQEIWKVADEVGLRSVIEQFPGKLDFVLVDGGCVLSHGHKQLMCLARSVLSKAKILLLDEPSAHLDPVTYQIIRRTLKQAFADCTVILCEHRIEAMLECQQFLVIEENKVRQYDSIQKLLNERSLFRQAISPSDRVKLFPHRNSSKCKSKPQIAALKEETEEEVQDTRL
# CONDITION_SUMMARY: enteroid cells incubated with test compound 18-24 hours; acute 10 μM forskolin and 300 nM Compound III
pEC50: −log10 of the molar value.

Sample answers from the record:
COMPOUND | MEASUREMENT_TARGET | pEC50
CC1(C)C[C@H]2CCCCc3cccc(n3)S(=O)(=O)NC(=O)c3ccc(-n4ccc(OCCC5(C(F)(F)F)CC5)n4)nc3N1C2 (single isomer, unassigned) [Compound 87] | CFTR-mediated chloride transport (Homo sapiens) | > 6.00
[2H]c1ccc2nc1NCCC[C@@H]1CN(c3nc(-n4ccc(OCCC5C6(CC6)C56CC6)n4)ccc3C(=O)NS2(=O)=O)C(C)(C)C1 | CFTR-mediated chloride transport (Homo sapiens) | > 6.00
CC1(C)C[C@@H]2CCCNc3cccc(n3)S(=O)(=O)NC(=O)c3ccc(-n4ccc(OCCC(C5CCC5)C5CCC5)n4)nc3N1C2 | CFTR-mediated chloride transport (Homo sapiens) | > 6.00
CC1(C)C[C@@H]2CCCNc3cccc(n3)S(=O)(=O)NC(=O)c3ccc(N4CC[C@H](OCC56CC7CC(CC(C7)C5)C6)C4=O)nc3N1C2 (single isomer, unassigned) [Compound 244] | CFTR-mediated chloride transport (Homo sapiens) | > 6.00

## Task Tell me the measured pEC50 of CC1(C)C[C@@H]2CCCNc3cccc(n3)S(=O)(=O)NC(=O)c3ccc(N4CCN(C[C@H]5CC[C@@H](C(F)(F)F)CC5)C4=O)nc3N1C2 (single isomer, unassigned) , please.
## Result > 6.00

## Task Tell me the measured pEC50 of CC1(C)C[C@H]2C[C@@H](F)CNc3cccc(n3)S(=O)(=O)NC(=O)c3ccc(-n4ccc(OCCC5C6(CC6)C56CC6)n4)nc3N1C2 (single isomer, unassigned) [Compound 309] , please.
## Result > 6.00

###

# MEASUREMENT_TARGET: CFTR-mediated chloride transport (Homo sapiens)
# Type: cell-based
# CONDITION_SUMMARY: enteroid cells incubated with test compound 18-24 hours; acute 10 μM forskolin and 300 nM Compound III; % of chloride transport with 3 μM Compound A, 3 μM Compound II and 300 nM acute Compound III triple combination control
OBSERVED_PROPERTY: Max. Activity

Sample answers from the record:
COMPOUND | MEASUREMENT_TARGET | Max. Activity
CC(C)(C)CCC1CCN(c2ccc3c(n2)N2C[C@@H](CCCNc4cccc(n4)S(=O)(=O)NC3=O)CC2(C)C)C1=O (some centres unmarked) | CFTR-mediated chloride transport (Homo sapiens) | ++ (++ is 30-60%)
[2H]C([2H])(COc1ccn(-c2ccc3c(n2)N2C[C@@H](CCCNc4cccc(n4)S(=O)(=O)NC3=O)CC2(C)C)n1)C1C2(CC2)C12CC2 | CFTR-mediated chloride transport (Homo sapiens) | +++ (+++ is >60%)
CC1(C)C[C@@H]2CCCNc3cccc(n3)S(=O)(=O)NC(=O)c3ccc(N4CC[C@H](OCCCC5(C(F)(F)F)CC5)C4=O)nc3N1C2 (single isomer, unassigned) [Compound 243] | CFTR-mediated chloride transport (Homo sapiens) | +++ (+++ is >60%)
CC1(C)C[C@H]2CCCNc3cccc(n3)S(=O)(=O)NC(=O)c3ccc(-n4ccc(OCC5(C(F)(F)F)CC5)n4)nc3N1C2 (single isomer, unassigned) [Compound 22] | CFTR-mediated chloride transport (Homo sapiens) | +++ (+++ is >60%)

## Task Tell me the measured Max. Activity of `Cc1nn2cc1S(=O)(=O)NC(=O)c1ccc(-n3ccc(OCCC4(C(F)(F)F)CC4)n3)nc1N1C[C@@H](CCC2)CC1(C)C` , please.
## Result ++ (++ is 30-60%)

## Task Tell me the measured Max. Activity of `CC1(C)C[C@@H]2CCCOc3cccc(c3)S(=O)(=O)NC(=O)c3ccc(-n4ccc(OCCC5(C(F)(F)F)CC5)n4)nc3N1C2` , please.
## Result +++ (+++ is >60%)

## Task Tell me the measured Max. Activity of CC1(C)CC[C@H]2CCCCNc3cccc(n3)S(=O)(=O)NC(=O)c3ccc(-n4ccc(OCCC5(C(F)(F)F)CC5)n4)nc3N21 (single isomer, unassigned) [Compound 47] , please.
## Result +++ (+++ is >60%)

## Task Tell me the measured Max. Activity of `CC1(C)C[C@@H]2CCCNc3nc(ccc3O)S(=O)(=O)NC(=O)c3ccc(-n4ccc(OCCC5C6(CC6)C56CC6)n4)nc3N1C2` , please.
## Result ++ (++ is 30-60%)

## Task Tell me the measured Max. Activity of CC1(C)CC2CN1c1nc(-n3ccc(OCCCC4(C(F)(F)F)CC4)n3)ccc1C(=O)NS(=O)(=O)c1cccc(n1)NCCO2 (centres unmarked) , please.
## Result +++ (+++ is >60%)

## Task Tell me the measured Max. Activity of CC1(C)C[C@@H]2CN1c1nc(-n3ccc(OCCC4C5(CC5)C45CC5)n3)ccc1C(=O)NS(=O)(=O)c1cccc(n1)NCC(F)(F)C2 (single isomer, unassigned) [Compound 304] , please.
## Result +++ (+++ is >60%)
